Test system: SNB-19 CNS
Assay: NCI-60 one-dose screen, 48 h
Conditions: 10 µM unless noted
The panel holds about 83,000 compounds, 20% with a hit somewhere; the sample as a whole holds those more often. Calls of active or inactive are those of the source. How the source made its calls: active means growth percent below 10; inactive means the rest.
Outcome codes: TRUE for active, FALSE for inactive

molecule=COc1ccc(/C=C\c2cc(OC)c(OC)c(OC)c2)cc1OC(=O)c1cccc(Cn2cc(CCOC(=O)c3cccc(Cn4nnc5c4C(=O)c4ccccc4C5=O)c3)nn2)c1 class_assignment=FALSE
molecule=CC(=O)Nc1ccc(/C=C/C(=O)c2ccccc2)cc1 class_assignment=FALSE
molecule=C/C(=C\c1ccc(OCC(=O)O)c(Cl)c1Cl)[N+](=O)[O-] class_assignment=FALSE
molecule=O=C(Nc1cccc(-n2cc(-c3ccncc3)c(-c3ccc(Cl)c(O)c3)n2)c1)Nc1ccc(Cl)c(C(F)(F)F)c1 class_assignment=TRUE
molecule="O=c1[nH]c2ccc(Br)cc2c2c1C(c1ccc(Cl)cc1)c1c(ncn3nc(-c4ccco4)nc13)O2 (centres undefined)" class_assignment=FALSE
molecule=COc1cc(NC(N)=NCCC(C)(C)Oc2ccc(C(F)(F)F)cc2)ncc1C#N class_assignment=FALSE
molecule=Cc1ccc(CSC(=N)N)cc1C class_assignment=FALSE
molecule=C=C[C@@H]1C[C@H](O)Cc2cc(F)ccc2N1 class_assignment=FALSE
molecule=CCC1=CCC[C@@]2(C)CCC[C@@]3(C)CCCC(C)(C)[C@]1([O-])[O+]32 class_assignment=FALSE
molecule="COC(=O)C(Sc1ccc(Cl)cc1)C1SC(=S)N(Cc2ccccc2)C1=O (centres undefined)" class_assignment=FALSE
molecule=OB(O)c1cccc(-c2nc3ccc4[nH]ncc4c3c3c2CCCC3)c1F class_assignment=FALSE
molecule=Clc1cccc(-c2cc(-c3ccc4c(c3)OCCO4)[nH]n2)c1 class_assignment=FALSE
molecule=COc1ccc(/C=C2\CN(Cc3cn(CCNc4ccnc5cc(Cl)ccc45)nn3)C/C(=C\c3ccc(OC)c(OC)c3)C2=O)cc1OC class_assignment=FALSE
molecule=COc1ccc(-c2nc3sc(-c4cc(OC)c(OC)c(OC)c4)nn3c2/C=C2/C(=O)Nc3ccc(F)cc32)cc1 class_assignment=FALSE
molecule=COc1ccc(S(=O)(=O)NCCCNc2nccc(-n3ccc4cccnc43)n2)cc1 class_assignment=FALSE
molecule=O=c1cc/c(=N\Nc2ccccc2)c(=O)/c1=N/Nc1ccccc1 class_assignment=FALSE
molecule=Cc1ccc(C(=O)C2=Cc3cc4ccccc4n3Cc3cnnn32)cc1 class_assignment=FALSE
molecule=COc1ccc(/C=C2\N=C(c3ccccc3)N(C(=O)c3ccccc3O)NC2=O)cc1 class_assignment=FALSE
molecule="COc1ccc(C2C(C#N)=C(N)Oc3c2ccc2ccccc32)cc1 (centres undefined)" class_assignment=FALSE
molecule=COc1ccc(-n2c(=S)sc3c(Cl)nc(C)nc32)c(OC)c1 class_assignment=FALSE
molecule=C=C1C(=O)O[C@H]2[C@H]1CC/C(Cn1cc(CNC(=O)Cc3cn(C(=O)c4ccc(Cl)cc4)c4ccc(OC)cc34)nn1)=C\CC[C@@]1(C)O[C@@H]21 class_assignment=FALSE
molecule="C/C=C/C1=CN2C(=O)c3cc(OC4OC(C)C(NC)C(C)(O)C4O)c(C)cc3N=C[C@@H]2C1 (some centres undefined)" class_assignment=FALSE
molecule=C=C1C(=O)O[C@H]2[C@H]1CC/C(Cn1cc(-c3cccc(Cl)c3)nn1)=C\CC[C@@]1(C)O[C@@H]21 class_assignment=FALSE
molecule=O=C(Nc1ccc2c(c1)OCCO2)C(=O)c1c[nH]c2ccccc12 class_assignment=FALSE
molecule=Brc1cccc(-c2cc(-c3ccc4nccnc4c3)[nH]n2)c1 class_assignment=FALSE
molecule=C=C(C)[C@@H]1CC[C@]2(C(=O)O)CC[C@]3(C)[C@H](CC[C@@H]4[C@@]5(C)C[C@@H](CC#Cc6ccc(C(F)(F)F)cc6)[C@H](O)C(C)(C)[C@@H]5CC[C@]43C)[C@@H]12 class_assignment=FALSE
molecule=O=C(Nc1cccc(-n2cc(-c3ccncc3)c(-c3ccc(Cl)c(O)c3)n2)c1)Nc1cccc(C(F)(F)F)c1 class_assignment=FALSE
molecule=N=C(N)c1ccc(-c2ccc(-c3ccc(-c4cccs4)s3)s2)cc1 class_assignment=FALSE
molecule=FC(F)(F)c1cccc(-c2cn3c(ccc4ccccc43)n2)c1 class_assignment=FALSE
molecule=O=C(NCc1cn(Cc2cccc(Oc3ccccc3)c2)nn1)c1cccnc1Nc1ccc(F)cc1 class_assignment=FALSE
molecule=O=C(O)c1nc(-c2ccccc2)oc1N1CCOCC1 class_assignment=FALSE
molecule=COc1cc(/C=C/C(=O)c2cccc(-n3cc(-c4cc(OC)c(OC)c(OC)c4)[nH]c3=O)c2)cc(OC)c1OC class_assignment=FALSE
molecule=COc1ccc(/C=C/c2c(C(C)=O)c(C)nc3ccccc23)cc1 class_assignment=FALSE
molecule=Cc1ccc2nc(Cl)cc(=O)n2c1 class_assignment=FALSE
molecule=O=C(c1ccccc1)c1c(/C=C/c2ccccc2)c2ccccc2[nH]c1=O class_assignment=FALSE
molecule=O=C(Nc1ccc(Cl)c(Cl)c1)NS(=O)(=O)c1cnccc1Oc1ccc(F)cc1 class_assignment=FALSE
molecule=CC(C)c1ccc2occ(C=C3C(=O)NC(=O)NC3=O)c(=O)c2c1 class_assignment=FALSE
molecule=COc1ccc(-c2cc3c(OC)c(OC)c(OC)cc3oc2=O)cc1 class_assignment=FALSE
molecule=C=C(C)[C@@H]1C[C@@H]2Cc3cc(Cl)ccc3N1O2 class_assignment=FALSE

====

Test system: HS 578T breast
Test: NCI-60 one-dose screen, 48 h (100 = growth as untreated, 0 = no growth, -100 = all killed)
Details: 10 µM unless noted
This is part of a sample that, as a whole, favours compounds with a hit. Of some 83,000 tested, about 20% had one in any assay.
Parameter: growth. Scope: all listed entries.
assay.readout: growth (%)

compound=O=C1/C(=C/c2ccc([N+](=O)[O-])cc2)CN(C(=O)CCN2CCC(=NO)CC2)C/C1=C\c1ccc([N+](=O)[O-])cc1 assay_readout=growth unit_symbol=% measured_number=22.8
compound="C=C1CCC2C(C)(CO)C(O)CCC2(C)C1CC(NCc1ccccc1)C1=CCOC1=O (stereo not given)" assay_readout=growth unit_symbol=% measured_number=104
compound=CCCCNC(=O)Oc1ccc(/C(=C(\C)c2ccccc2)c2ccc(OCCN(CC)CC)cc2)cc1 assay_readout=growth unit_symbol=% measured_number=39.8
compound=COc1ccc(/C=C/c2c(C(C)=O)c(C)nc3ccccc23)cc1 assay_readout=growth unit_symbol=% measured_number=106
compound=FC(F)(F)c1ccccc1-c1cn2c(ccc3ccccc32)n1 assay_readout=growth unit_symbol=% measured_number=71.4

====

System: SK-MEL-28 melanoma
Assay: NCI-60 one-dose screen, 48 h (100 = growth as untreated, 0 = no growth, -100 = all killed)
Conditions: 10 µM unless noted
About 83,000 compounds went through this panel and 20% of them were active in at least one assay; those are over-represented in the sample as a whole.
assay.readout: growth (%)

molecule=N/C(=N\C(N)=N\c1nc2ccccc2s1)c1cccc(Br)c1 unit_symbol=% measured_number=94.5
molecule="CC12CCC3C4(C)COC(c5ccco5)OC4CCC3(C)C1CC(C1=CCOC1=O)O2 (stereo not given)" unit_symbol=% measured_number=106
molecule="COc1cc(C2NN=C3c4ccccc4CCC32)cc(OC)c1OC (stereo not given)" unit_symbol=% measured_number=101
molecule=O=[N+]([O-])c1cnc(Sc2ccncn2)s1 unit_symbol=% measured_number=-61
molecule=COc1cccc(/C=C2\Oc3cc(OCCCN4CCCC4)ccc3C2=O)c1 unit_symbol=% measured_number=100
molecule="CCOC(=O)C1CCNC(=O)C1=O (stereo not given)" unit_symbol=% measured_number=112
molecule=COc1cc(-c2nc(N=Nc3c(O)[nH]c4ccc(Br)cc34)[nH]c(=O)c2C#N)cc(OC)c1OC unit_symbol=% measured_number=111
molecule=COc1cc(/C=N\NC(=O)CN2CCN(c3cc4c(cc3F)c(=O)c(C(=O)N/N=C/c3cc(OC)c(OC)c(OC)c3)cn4C3CC3)CC2)cc(OC)c1OC unit_symbol=% measured_number=-11.6
molecule=O=Nc1c(-c2cccc([N+](=O)[O-])c2)nc2ncccn12 unit_symbol=% measured_number=115
molecule=N=C(N)c1ccc(-c2ccc(-c3ccc(-c4cccs4)s3)s2)cc1 unit_symbol=% measured_number=102

====

Tested on: COLO 205 colon
Experiment: NCI-60 one-dose screen, 48 h (100 = growth as untreated, 0 = no growth, -100 = all killed)
Conditions: 10 µM unless noted
About 83,000 compounds went through this panel and 20% of them were active in at least one assay; those are over-represented in the sample as a whole.
assay.readout: growth (%)

substance_smiles=CCNc1nc(S(=O)(=O)CC)nc2ccccc12 system_under_test="COLO 205 colon" measured_number=114
substance_smiles=COc1cc(/C=C/C(=O)N2CCN(C(=O)/C=C/c3cc(OC)c(OC)c(OC)c3)CC2)cc(OC)c1OC system_under_test="COLO 205 colon" measured_number=109
substance_smiles=COC(OC)c1ccccc1 system_under_test="COLO 205 colon" measured_number=107
substance_smiles=COc1ccc2[nH]c(C(=O)OCc3ccc4c(Cl)cc(Cl)c(O)c4n3)cc2c1 system_under_test="COLO 205 colon" measured_number=-75
substance_smiles=COc1cc(-c2nn(-c3cccc(NC(=O)Nc4cc(C(F)(F)F)cc(C(F)(F)F)c4)c3)cc2-c2ccncc2)ccc1Cl system_under_test="COLO 205 colon" measured_number=-98.7
substance_smiles=COc1cc([N+](=O)[O-])c2ncccc2c1O system_under_test="COLO 205 colon" measured_number=-67.8
substance_smiles=COc1ccc(-n2c(-c3ccccc3)c(-c3ccccc3)c3c(SCC(=O)N/N=C/c4ccc(Cl)cc4)ncnc32)cc1 system_under_test="COLO 205 colon" measured_number=104
substance_smiles=Brc1ccc(-c2[nH]ncc2-c2c[nH]c3ccccc23)cc1 system_under_test="COLO 205 colon" measured_number=109
substance_smiles=N#C/C(=C1C=C/C(=N/O)C(Cl)=C/1)c1ccc(Cl)cc1 system_under_test="COLO 205 colon" measured_number=99.8
substance_smiles=COc1ccc(OC)c(/C=C2\Oc3cc(OCCCN4CCCC4)ccc3C2=O)c1 system_under_test="COLO 205 colon" measured_number=85.6
